The compounds listed here are annotated with their GI50.
# System: 92.1 uveal melanoma cell line (heterozygous GNAQ Q209L)
# experiment: Cell proliferation assay (resazurin cell viability), 92.1 cell line
# Type: cell-based
# stated_conditions: 92.1 cell line, average of Rep. 1 and 2; read-out: GI50 92.1 Average
Starred links: 1 amine or outer side, 2 acyl side, 3 side chain; linkers in the order of their positions; H or OH if unused. Positions of bridges follow the written chain, without caps; N, C: chain ends. Non-standard residues stand in square brackets, D forms with d. Residues, ends and D or L forms follow the SMILES beside them. ξ: configuration not given here. *: point of attachment. Leu(3R-O(AcLeu(3R-OH))) = CC(=O)N[C@H](C(=O)O[C@H](C(C)C)[C@H](N)C(=O)O)[C@H](O)C(C)C; Leu(3R-OH,Nα-propionyl) = CCC(=O)N[C@H](C(=O)*)[C@H](O)C(C)C; X1 = CC(C)[C@@H](O[*:3])[C@H](N[*:1])C(=O)[*:2]; X5 = CSC[C@@H](O[*:3])[C@H](N[*:1])C(=O)[*:2]; X4 = CCC(=O)N[C@H](C(=O)*)[C@H](O)CSC; ξLeu(3ξ-OH) = CC(C)C(O)C(N)C(=O)O; NMeT = CN[CH](C(=O)O)[CH](C)O; dPhLac = O=C(O)[C@H](O)Cc1ccccc1; PhLac = O=C(O)[CH](O)Cc1ccccc1; NMeA = CN[CH](C)C(=O)O; NMeDha = C=C(NC)C(=O)O

compound	value_qualifier	GI50 / nM
C=C1C(=O)N[C@@H](C)C(=O)N(C)[C@@H](C)C(=O)N[C@@H]([C@@H](CSC)OC(=O)[C@@H](NC(=O)CC)[C@H](O)C(C)C)C(=O)N(C)[C@@H]([C@@H](C)OC)C(=O)O[C@H](C(C)C)[C@H](NC(C)=O)C(=O)O[C@H](Cc2ccccc2)C(=O)N1C [Compound 3] (Ac-[X1][dPhLac][NMeDha]A[NMeA][X5](Leu(3R-OH,Nα-propionyl))[NMeT](Me); ester 1-C)	=	10.4
C=C1C(=O)N[C@@H](C)C(=O)N(C)[C@@H](C)C(=O)N[C@@H]([C@H](OC(=O)[C@@H](NC(C)=O)[C@H](O)C(C)C)C(C)C)C(=O)N(C)[C@@H]([C@@H](C)OC)C(=O)O[C@H](C(C)C)[C@H](NC(C)=O)C(=O)O[C@H](Cc2ccccc2)C(=O)N1C [Compound 8] (Ac-[X1][dPhLac][NMeDha]A[NMeA][Leu(3R-O(AcLeu(3R-OH)))][NMeT](Me); ester 1-C)	=	1
C=C1C(=O)NC(C)C(=O)N(C)C(C)C(=O)NC(C(O)C(C)C)C(=O)N(C)C(C(C)OC)C(=O)OC(C)C(NC(C)=O)C(=O)OC(Cc2ccccc2)C(=O)N1C (centres unmarked) [Compound 15] (Ac-T[PhLac][NMeDha]A[NMeA][ξLeu(3ξ-OH)][NMeT](Me); ester 1-C; configuration not given here)	>	10000
C=C1C(=O)N[C@@H](C)C(=O)N(C)[C@@H](C)C(=O)N[C@@H]([C@H](OC(=O)[C@@H](NC(=O)CC)[C@H](O)CSC)C(C)C)C(=O)N(C)[C@@H]([C@@H](C)OC)C(=O)O[C@H](C(C)C)[C@H](NC(C)=O)C(=O)O[C@H](Cc2ccccc2)C(=O)N1C [Compound 4] (Ac-[X1][dPhLac][NMeDha]A[NMeA][X1](X4)[NMeT](Me); ester 1-C)	=	1.2
CCC(=O)N[C@H](C(=O)O[C@H](C(C)C)[C@@H]1NC(=O)[C@H](C)N(C)C(=O)[C@H](C)NC(=O)[C@H](C)N(C)C(=O)[C@@H](Cc2ccccc2)OC(=O)[C@@H](NC(C)=O)[C@@H](C(C)C)OC(=O)[C@H]([C@@H](C)OC)N(C)C1=O)[C@H](O)C(C)C [Compound 10] (Ac-[X1][dPhLac][NMeA]A[NMeA][X1](Leu(3R-OH,Nα-propionyl))[NMeT](Me); ester 1-C)	=	607

---

# Test system: 92.1 uveal melanoma cell line (heterozygous GNAQ Q209L)
# experiment: Cell proliferation assay (resazurin cell viability), 92.1 cell line
# Format: cell-based
# stated_conditions: 92.1 cell line, average of Rep. 1 and 2; read-out: GI50 92.1 Average
Starred links: 1 amine or outer side, 2 acyl side, 3 side chain; linkers in the order of their positions; H or OH if unused. Positions of bridges follow the written chain, without caps; N, C: chain ends. Non-standard residues stand in square brackets, D forms with d. Residues, ends and D or L forms follow the SMILES beside them. ξ: configuration not given here. *: point of attachment. Leu(3R-OH,Nα-propionyl) = CCC(=O)N[C@H](C(=O)*)[C@H](O)C(C)C; X1 = CC(C)[C@@H](O[*:3])[C@H](N[*:1])C(=O)[*:2]; X3 = CC(C)C(O[*:3])C(N[*:1])C(=O)[*:2]; ξLeu(3ξ-OH) = CC(C)C(O)C(N)C(=O)O; NMeT = CN[CH](C(=O)O)[CH](C)O; dPhLac = O=C(O)[C@H](O)Cc1ccccc1; PhLac = O=C(O)[CH](O)Cc1ccccc1; NMeA = CN[CH](C)C(=O)O; dNMeA = CN[C@H](C)C(=O)O; NMeDha = C=C(NC)C(=O)O; Propionyl = CCC(=O)*

compound	study_system	GI50 [nM]
CCC(=O)N[C@H](C(=O)O[C@H](C(C)C)[C@@H]1NC(=O)[C@H](C)N(C)C(=O)[C@H](C)NC(=O)[C@@H](C)N(C)C(=O)[C@@H](Cc2ccccc2)OC(=O)[C@@H](NC(C)=O)[C@@H](C(C)C)OC(=O)[C@H]([C@@H](C)OC)N(C)C1=O)[C@H](O)C(C)C [Compound 11] (Ac-[X1][dPhLac][dNMeA]A[NMeA][X1](Leu(3R-OH,Nα-propionyl))[NMeT](Me); ester 1-C)	92.1 uveal melanoma cell line (heterozygous GNAQ Q209L)	1.8
C=C1C(=O)NC(C)C(=O)N(C)C(C)C(=O)NC(C(O)C(C)C)C(=O)N(C)C(C(C)OC)C(=O)OC(C(C)C)C(NC(C)=O)C(=O)OC(Cc2ccccc2)C(=O)N1C (stereo not drawn) [Compound 12] (Ac-[X3][PhLac][NMeDha]A[NMeA][ξLeu(3ξ-OH)][NMeT](Me); ester 1-C; configuration not given here)	92.1 uveal melanoma cell line (heterozygous GNAQ Q209L)	1740
C=C1C(=O)N[C@@H](C)C(=O)N(C)[C@@H](C)C(=O)N[C@@H]([C@H](OC(=O)[C@@H](NC(=O)CC)[C@H](O)C(C)C)C(C)C)C(=O)N(C)[C@@H]([C@@H](C)OC)C(=O)O[C@H](C(C)C)[C@H](NC(=O)CC)C(=O)O[C@H](Cc2ccccc2)C(=O)N1C [Compound 9] (Propionyl-[X1][dPhLac][NMeDha]A[NMeA][X1](Leu(3R-OH,Nα-propionyl))[NMeT](Me); ester 1-C)	92.1 uveal melanoma cell line (heterozygous GNAQ Q209L)	1.4

---

Recorded GI50, one value per entry.
# Tested on: SK-MEL-30 skin melanoma cell line (heterozygous NRAS Q61K)
# experiment: Cell proliferation assay (resazurin cell viability), SK-MEL-30 cell line
# Type: cell-based
# stated_conditions: SK-MEL-30 cell line, average of Rep. 1 and 2; read-out: GI50 SK-MEL-30 Average
Starred links: 1 amine or outer side, 2 acyl side, 3 side chain; linkers in the order of their positions; H or OH if unused. Positions of bridges follow the written chain, without caps; N, C: chain ends. Non-standard residues stand in square brackets, D forms with d. Residues, ends and D or L forms follow the SMILES beside them. ξ: configuration not given here. *: point of attachment. Leu(3R-OH,Nα-propionyl) = CCC(=O)N[C@H](C(=O)*)[C@H](O)C(C)C; X1 = CC(C)[C@@H](O[*:3])[C@H](N[*:1])C(=O)[*:2]; X3 = CC(C)C(O[*:3])C(N[*:1])C(=O)[*:2]; ξLeu(3ξ-OH) = CC(C)C(O)C(N)C(=O)O; NMeT = CN[CH](C(=O)O)[CH](C)O; dPhLac = O=C(O)[C@H](O)Cc1ccccc1; X2 = CC(C)C=C(N[*:1])C(=O)[*:2]; PhLac = O=C(O)[CH](O)Cc1ccccc1; NMeA = CN[CH](C)C(=O)O; dNMeA = CN[C@H](C)C(=O)O; NMeDha = C=C(NC)C(=O)O; Propionyl = CCC(=O)*
reported_metric: GI50

compound	reported_metric	value_measured
CCC(=O)N[C@H](C(=O)O[C@H](C(C)C)[C@@H]1NC(=O)[C@H](C)N(C)C(=O)[C@H](C)NC(=O)[C@@H](C)N(C)C(=O)[C@@H](Cc2ccccc2)OC(=O)[C@@H](NC(C)=O)[C@@H](C(C)C)OC(=O)[C@H]([C@@H](C)OC)N(C)C1=O)[C@H](O)C(C)C [Compound 11] (Ac-[X1][dPhLac][dNMeA]A[NMeA][X1](Leu(3R-OH,Nα-propionyl))[NMeT](Me); ester 1-C)	GI50	> 260 nM
C=C1C(=O)NC(C)C(=O)N(C)C(C)C(=O)NC(C(O)C(C)C)C(=O)N(C)C(C(C)OC)C(=O)OC(C(C)C)C(NC(C)=O)C(=O)OC(Cc2ccccc2)C(=O)N1C (stereo not drawn) [Compound 12] (Ac-[X3][PhLac][NMeDha]A[NMeA][ξLeu(3ξ-OH)][NMeT](Me); ester 1-C; configuration not given here)	GI50	> 10000 nM
C=C(C(=O)N[C@@H](C)C(=O)N(C)[C@@H](C)C(=O)N[C@H](C(=O)N(C)[C@H](C(=O)O)[C@@H](C)OC)[C@H](OC(=O)[C@@H](NC(=O)CC)[C@H](O)C(C)C)C(C)C)N(C)C(=O)[C@@H](Cc1ccccc1)OC(=O)C(=CC(C)C)NC(C)=O [Compound 5] (Ac-[X2][dPhLac][NMeDha]A[NMeA][X1](Leu(3R-OH,Nα-propionyl))[NMeT](Me)-OH)	GI50	> 260 nM
C=C1C(=O)N[C@@H](C)C(=O)N(C)[C@@H](C)C(=O)N[C@@H]([C@H](OC(=O)[C@@H](NC(=O)CC)[C@H](O)C(C)C)C(C)C)C(=O)N(C)[C@@H]([C@@H](C)OC)C(=O)O[C@H](C(C)C)[C@H](NC(=O)CC)C(=O)O[C@H](Cc2ccccc2)C(=O)N1C [Compound 9] (Propionyl-[X1][dPhLac][NMeDha]A[NMeA][X1](Leu(3R-OH,Nα-propionyl))[NMeT](Me); ester 1-C)	GI50	> 260 nM
CCC(=O)N[C@H](C(=O)O[C@H](C(C)C)[C@@H]1NC(=O)[C@H](C)N(C)C(=O)[C@H](C)NC(=O)[C@H](C)N(C)C(=O)[C@@H](Cc2ccccc2)OC(=O)[C@@H](NC(C)=O)[C@@H](C(C)C)OC(=O)[C@H]([C@@H](C)OC)N(C)C1=O)[C@H](O)C(C)C [Compound 10] (Ac-[X1][dPhLac][NMeA]A[NMeA][X1](Leu(3R-OH,Nα-propionyl))[NMeT](Me); ester 1-C)	GI50	> 10000 nM
C=C1C(=O)N[C@@H](C)C(=O)N(C)[C@@H](C)C(=O)N[C@@H]([C@H](OC(=O)[C@@H](NC(=O)CC)[C@H](O)C(C)C)C(C)C)C(=O)N(C)[C@@H]([C@@H](C)OC)C(=O)O[C@H](C)[C@H](NC(C)=O)C(=O)O[C@H](Cc2ccccc2)C(=O)N1C [Compound 14] (Ac-T[dPhLac][NMeDha]A[NMeA][X1](Leu(3R-OH,Nα-propionyl))[NMeT](Me); ester 1-C)	GI50	> 260 nM
